Listing of recorded hEphA6-SEAP-: absorbance at 450 nm, percentage with respect to hEphA4-SEAP-His as 100% by entry.
Target: T1, human EphA6 (Homo sapiens, UniProt Q9UF33)
T1 construct: a protein of the extracellular region of each human Eph receptor fused with the SEAP protein and the His tag; made in house; host or cells: Expi293F cells (culture supernatant)
T1 sequence (Q9UF33 23-550 limits assumed): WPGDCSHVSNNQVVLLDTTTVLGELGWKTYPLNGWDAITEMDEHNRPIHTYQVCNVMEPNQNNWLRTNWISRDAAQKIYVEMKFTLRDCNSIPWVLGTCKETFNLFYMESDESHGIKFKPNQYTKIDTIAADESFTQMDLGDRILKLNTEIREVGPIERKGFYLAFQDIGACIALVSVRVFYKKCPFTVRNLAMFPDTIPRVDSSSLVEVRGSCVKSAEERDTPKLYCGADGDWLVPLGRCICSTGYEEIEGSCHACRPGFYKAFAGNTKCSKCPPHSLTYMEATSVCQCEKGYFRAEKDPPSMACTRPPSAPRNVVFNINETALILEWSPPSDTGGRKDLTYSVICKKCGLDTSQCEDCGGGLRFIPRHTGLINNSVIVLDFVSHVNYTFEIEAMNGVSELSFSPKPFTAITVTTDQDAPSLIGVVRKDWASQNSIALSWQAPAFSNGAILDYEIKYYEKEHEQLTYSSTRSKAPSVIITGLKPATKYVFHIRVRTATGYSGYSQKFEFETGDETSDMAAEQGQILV
Test: Selectivity ELISA of humanized antibodies for human Eph receptor
Format: binding
Settings: coated protein 1 nM
Field: numeric (%). Do not append units.

Record excerpt, results attached:
MOLECULE: 81 (antibody, V domains shown, constant regions without entry; synthetic humanized antibody light chain variable region sequence; synthetic humanized antibody heavy chain variable region sequence) VL: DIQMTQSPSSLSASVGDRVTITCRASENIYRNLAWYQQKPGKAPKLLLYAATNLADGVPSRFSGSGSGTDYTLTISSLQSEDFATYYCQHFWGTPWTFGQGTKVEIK VH: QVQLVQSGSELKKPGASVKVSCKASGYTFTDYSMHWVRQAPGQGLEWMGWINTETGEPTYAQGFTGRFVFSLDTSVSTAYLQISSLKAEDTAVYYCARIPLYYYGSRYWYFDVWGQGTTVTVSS
EXPERIMENTAL VALUE: 8.8

MOLECULE: 135 (antibody, V domains shown, synthetic humanized antibody heavy chain variable region sequence; synthetic humanized antibody light chain variable region sequence) VH: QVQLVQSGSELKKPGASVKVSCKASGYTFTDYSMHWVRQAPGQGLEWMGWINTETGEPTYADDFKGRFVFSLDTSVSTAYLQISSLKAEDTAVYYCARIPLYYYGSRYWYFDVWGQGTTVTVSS VL: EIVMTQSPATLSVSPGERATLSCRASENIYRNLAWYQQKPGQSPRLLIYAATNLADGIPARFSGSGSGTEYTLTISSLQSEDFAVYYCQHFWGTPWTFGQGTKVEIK
EXPERIMENTAL VALUE: 7.0

MOLECULE: 91 (antibody, V domains shown, constant regions without entry; synthetic humanized antibody light chain variable region sequence; synthetic humanized antibody heavy chain variable region sequence) VL: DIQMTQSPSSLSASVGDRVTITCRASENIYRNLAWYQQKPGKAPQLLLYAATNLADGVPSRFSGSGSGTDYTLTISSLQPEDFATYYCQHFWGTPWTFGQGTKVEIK VH: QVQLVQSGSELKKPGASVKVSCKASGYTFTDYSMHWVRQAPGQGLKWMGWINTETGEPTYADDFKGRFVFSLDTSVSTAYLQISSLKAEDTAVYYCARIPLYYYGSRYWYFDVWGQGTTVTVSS
EXPERIMENTAL VALUE: 8.8

Shift focus to the following entry.
q: Which hEphA6-SEAP-: absorbance at 450 nm, percentage with respect to hEphA4-SEAP-His as 100% is reported for this molecule? 90 (antibody, V domains shown, constant regions without entry; synthetic humanized antibody light chain variable region sequence; synthetic humanized antibody heavy chain variable region sequence) VL: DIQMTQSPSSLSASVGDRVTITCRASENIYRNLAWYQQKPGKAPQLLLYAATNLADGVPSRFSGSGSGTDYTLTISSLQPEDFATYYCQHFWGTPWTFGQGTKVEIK VH: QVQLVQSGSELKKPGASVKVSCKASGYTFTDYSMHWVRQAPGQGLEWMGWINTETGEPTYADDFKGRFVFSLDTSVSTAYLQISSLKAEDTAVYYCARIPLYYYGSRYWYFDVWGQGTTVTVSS
a: 7.6
